# Tested on: Staphylococcus aureus ATCC 43300 methicillin-resistant MRSA
# METHOD_DESCRIPTION: Broth microdilution, S. aureus ATCC 43300 MRSA
# Type: cell-based
# STUDY_CONDITIONS: Sa 43300 MRSA
PARAMETER_MEASURED: MBC

Give the reported value of MBC for this record: Cn1cc([N+](=O)[O-])nc1C(=O)NNC(=S)Nc1ccccc1Cl
>1000 µg/mL

Give the reported value of MBC for this record: Cn1cc([N+](=O)[O-])nc1C(=O)NNC(=S)Nc1ccc(C(F)(F)F)cc1
500 µg/mL

Give the reported value of MBC for this record: Cn1cc([N+](=O)[O-])nc1C(=O)NNC(=S)Nc1ccc(Cl)cc1
>1000 µg/mL

Give the reported value of MBC for this record: Cn1cc([N+](=O)[O-])nc1C(=O)NNC(=S)Nc1cccc(Cl)c1
>1000 µg/mL

Give the reported value of MBC for this record: Cn1cc([N+](=O)[O-])nc1C(=O)NNC(=S)Nc1ccc(F)cc1
>1000 µg/mL

Give the reported value of MBC for this record: Cn1cc([N+](=O)[O-])nc1C(=O)NNC(=S)Nc1ccccc1F
>1000 µg/mL

Give the reported value of MBC for this record: COc1ccc(NC(=S)NNC(=O)c2nc([N+](=O)[O-])cn2C)cc1
>1000 µg/mL

Give the reported value of MBC for this record: COc1ccccc1NC(=S)NNC(=O)c1nc([N+](=O)[O-])cn1C
>1000 µg/mL

Give the reported value of MBC for this record: COc1cccc(NC(=S)NNC(=O)c2nc([N+](=O)[O-])cn2C)c1
>1000 µg/mL

Give the reported value of MBC for this record: Cn1cc([N+](=O)[O-])nc1C(=O)NNC(=S)Nc1cccc(F)c1
>1000 µg/mL

Give the reported value of MBC for this record: Cc1ccccc1NC(=S)NNC(=O)c1nc([N+](=O)[O-])cn1C
>1000 µg/mL

Give the reported value of MBC for this record: Cn1cc([N+](=O)[O-])nc1C(=O)NNC(=S)Nc1ccccc1C(F)(F)F
>1000 µg/mL

* * *

# Tested on: HaCaT cells
# METHOD_DESCRIPTION: MTT assay, HaCaT normal cells
# Assay type: cell-based
# STUDY_CONDITIONS: HaCaT human immortal keratinocyte (normal cells), 24 h, mean SD
PARAMETER_MEASURED: pIC50
// field semantics: pIC50 = negative decimal log of concentration (mol/L)

{"columns": ["COMPOUND", "SUBJECT_OF_TEST", "pIC50"],
 "data": [
  ["N.N.[Cl][Pt][Cl] [Cisplatin, cisplatin]", "HaCaT cells", 5.20],
  ["COc1ccc(C=NNC(=O)c2nc([N+](=O)[O-])cn2C)c(O)c1 [Compound 30]", "HaCaT cells", 4.01]
]}

Now consider the entry below.
Give the reported value of pIC50 for this record: COc1cccc2c1C(=O)c1c(O)c3c(c(O)c1C2=O)C[C@@](O)(C(=O)CO)C[C@@H]3O[C@H]1C[C@H](N)[C@H](O)[C@H](C)O1 [Doxo-rubicin, doxorubicin]
6.52

* * *

Let's look at some compounds and their measured MIC.
# Tested on: Bacillus cereus ATCC 10876
# METHOD_DESCRIPTION: Broth microdilution, B. cereus ATCC 10876
# Type: cell-based
# STUDY_CONDITIONS: Bc 10876
# Protocol: The antibacterial activity of the obtained thiosemicarbazides and hydrazide–hydrazones was determined by evaluating their ability to inhibit microbial growth in vitro using the broth microdilution method, according to the guidelines of the European Committee on Antimicrobial Susceptibility Testing (EUCAST). […] After incubation, the spectrophotometric absorbance at 570 nm in each well of the plate was read. […]

{"columns": ["COMPOUND", "TEST_VALUE"],
 "data": [
  ["Cn1cc([N+](=O)[O-])nc1C(=O)NNC(=S)Nc1ccc(Cl)cc1", "250 µg/mL"],
  ["COc1cccc(NC(=S)NNC(=O)c2nc([N+](=O)[O-])cn2C)c1", "500 µg/mL"],
  ["Cn1cc([N+](=O)[O-])nc1C(=O)NNC(=S)Nc1ccccc1Cl", "1000 µg/mL"],
  ["Cn1cc([N+](=O)[O-])nc1C(=O)NNC(=S)Nc1cccc(C(F)(F)F)c1", "1000 µg/mL"],
  ["Cn1cc([N+](=O)[O-])nc1C(=O)NNC(=S)Nc1ccccc1F", "500 µg/mL"]
]}

Give the reported value of MIC for this record: COc1ccc(NC(=S)NNC(=O)c2nc([N+](=O)[O-])cn2C)cc1
250 µg/mL

Give the reported value of MIC for this record: Cn1cc([N+](=O)[O-])nc1C(=O)NNC(=S)Nc1ccccc1
>1000 µg/mL

Give the reported value of MIC for this record: Cn1cc([N+](=O)[O-])nc1C(=O)NNC(=S)Nc1ccc(F)cc1
500 µg/mL

Give the reported value of MIC for this record: Cn1cc([N+](=O)[O-])nc1C(=O)NNC(=S)Nc1ccc(C(F)(F)F)cc1
31.25 µg/mL

* * *

# System: Bacillus subtilis ATCC 6633
# METHOD_DESCRIPTION: Broth microdilution, B. subtilis ATCC 6633
# Format: cell-based
# STUDY_CONDITIONS: Bs 6633
# note: boundary value 100 µg/mL maps to not satisfied; MIC below it maps to satisfied

Use these answered entries as a reference point.
{"columns": ["COMPOUND", "DISCRETE_LABEL"],
 "data": [
  ["Cn1cc([N+](=O)[O-])nc1C(=O)NNC(=S)Nc1cccc(C(F)(F)F)c1 [Compound 13]", "not satisfied"],
  ["COc1ccc(NC(=S)NNC(=O)c2nc([N+](=O)[O-])cn2C)cc1 [Compound 11]", "not satisfied"],
  ["Cn1cc([N+](=O)[O-])nc1C(=O)NNC(=S)Nc1cccc(Cl)c1 [Compound 4]", "satisfied"]
]}

Item Cn1cc([N+](=O)[O-])nc1C(=O)NNC(=S)Nc1cccc(F)c1 [Compound 7] : MIC beneath 100 µg/mL, strictly?
not satisfied

Item COc1ccccc1NC(=S)NNC(=O)c1nc([N+](=O)[O-])cn1C [Compound 9] : MIC beneath 100 µg/mL, strictly?
not satisfied

Item Cn1cc([N+](=O)[O-])nc1C(=O)NNC(=S)Nc1ccc(Cl)cc1 [Compound 5] : MIC beneath 100 µg/mL, strictly?
satisfied

* * *

Let's look at some compounds and their measured IC50.
# Tested on: A-549 cells
# METHOD_DESCRIPTION: MTT assay, A-549 cells
# Type: cell-based, human
# STUDY_CONDITIONS: A549; A-549 human lung carcinoma, MTT, 24 h, mean SD

Consider the worked cases shown below.
{"columns": ["COMPOUND", "IC50"],
 "data": [
  ["COc1ccc(O)c(C=NNC(=O)c2nc([N+](=O)[O-])cn2C)c1 [Compound 31]", "> 100 µM"],
  ["COc1cccc2c1C(=O)c1c(O)c3c(c(O)c1C2=O)C[C@@](O)(C(=O)CO)C[C@@H]3O[C@H]1C[C@H](N)[C@H](O)[C@H](C)O1 [Doxo-rubicin, doxorubicin]", "0.2 µM"]
]}

Give the reported value of IC50 for this record: COc1ccc(C=NNC(=O)c2nc([N+](=O)[O-])cn2C)c(O)c1 [Compound 30]
> 100 µM

* * *

Let's look at some molecules and their measured MBC.
# Tested on: Staphylococcus epidermidis ATCC 12228
# METHOD_DESCRIPTION: Broth microdilution, S. epidermidis ATCC 12228
# Type: cell-based
# STUDY_CONDITIONS: Se 12228

{"columns": ["COMPOUND", "MBC"],
 "data": [
  ["COc1ccc(NC(=S)NNC(=O)c2nc([N+](=O)[O-])cn2C)cc1", ">1000 µg/mL"],
  ["COc1ccccc1NC(=S)NNC(=O)c1nc([N+](=O)[O-])cn1C", ">1000 µg/mL"]
]}

Now consider the entry below.
Give the reported value of MBC for this record: Cn1cc([N+](=O)[O-])nc1C(=O)NNC(=S)Nc1cccc(C(F)(F)F)c1
>1000 µg/mL

* * *

# System: Bacillus subtilis ATCC 6633
# METHOD_DESCRIPTION: Broth microdilution, B. subtilis ATCC 6633
# Assay type: cell-based
# STUDY_CONDITIONS: Bs 6633
Let's look at some compounds and their measured MIC.

Consider the worked cases shown below.
{"columns": ["COMPOUND", "MIC"],
 "data": [
  ["Cn1cc([N+](=O)[O-])nc1C(=O)NNC(=S)Nc1ccccc1F [Compound 6]", "250 µg/mL"],
  ["Cn1cc([N+](=O)[O-])nc1C(=O)NNC(=S)Nc1ccc(F)cc1 [Compound 8]", "250 µg/mL"],
  ["Cn1cc([N+](=O)[O-])nc1C(=O)NNC(=S)Nc1ccccc1C(F)(F)F [Compound 12]", "250 µg/mL"]
]}

Give the reported value of MIC for this record: Cc1ccccc1NC(=S)NNC(=O)c1nc([N+](=O)[O-])cn1C [Compound 15]
1000 µg/mL

Give the reported value of MIC for this record: COc1cccc(NC(=S)NNC(=O)c2nc([N+](=O)[O-])cn2C)c1 [Compound 10]
125 µg/mL

Give the reported value of MIC for this record: Cn1cc([N+](=O)[O-])nc1C(=O)NNC(=S)Nc1ccccc1 [Compound 2]
1000 µg/mL

Give the reported value of MIC for this record: Cn1cc([N+](=O)[O-])nc1C(=O)NNC(=S)Nc1ccc(C(F)(F)F)cc1 [Compound 14]
31.25 µg/mL

Give the reported value of MIC for this record: Cn1cc([N+](=O)[O-])nc1C(=O)NNC(=S)Nc1ccccc1Cl [Compound 3]
125 µg/mL
